- TARGET_UNDER_TEST: Ubiquitin-conjugating enzyme E2 N (Homo sapiens)
- Sequence (P61088 whole entry): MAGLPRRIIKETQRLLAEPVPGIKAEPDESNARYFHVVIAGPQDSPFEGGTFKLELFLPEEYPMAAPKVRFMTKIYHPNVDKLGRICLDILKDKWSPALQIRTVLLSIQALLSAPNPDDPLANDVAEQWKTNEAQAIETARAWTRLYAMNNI
- Assay type: functional
Activity calls are given as the source filed them.
Classes used: active, inactive

SMILES_RECORD: CC(C)Cn1c(=O)c(C(=O)Nc2ccccc2S(N)(=O)=O)c(O)c2ccccc21
TARGET_UNDER_TEST: Ubiquitin-conjugating enzyme E2 N (Homo sapiens)
GROUP: inactive
//
SMILES_RECORD: CC[C@@H](C)[C@@H]1CN([C@@H](CN2CCC[C@H]2CN2C(N)=NC[C@H]2CC(C)C)C(C)C)C(=N)N1CCc1ccc(Cl)c(Cl)c1
TARGET_UNDER_TEST: Ubiquitin-conjugating enzyme E2 N (Homo sapiens)
GROUP: inactive
//
SMILES_RECORD: Cc1ccc(C)c(S(=O)(=O)c2c[nH]c(=S)[nH]c2=O)c1
TARGET_UNDER_TEST: Ubiquitin-conjugating enzyme E2 N (Homo sapiens)
GROUP: active
//
SMILES_RECORD: CN(C)CCCNC(=O)c1ccc(-c2nc(-c3ccc(Cl)cc3)cs2)cc1
TARGET_UNDER_TEST: Ubiquitin-conjugating enzyme E2 N (Homo sapiens)
GROUP: inactive
//
SMILES_RECORD: Cc1cc(SCC(=O)NC(=O)c2cccn2C)nc2ccccc12
TARGET_UNDER_TEST: Ubiquitin-conjugating enzyme E2 N (Homo sapiens)
GROUP: active
//
SMILES_RECORD: CCSc1nc(N2CCCCC2)c2c(c1C#N)CCCC2
TARGET_UNDER_TEST: Ubiquitin-conjugating enzyme E2 N (Homo sapiens)
GROUP: inactive
//
SMILES_RECORD: NC1=NC[C@H](Cc2ccc(O)cc2)N1CCC12CC3CC(CC(C3)C1)C2
TARGET_UNDER_TEST: Ubiquitin-conjugating enzyme E2 N (Homo sapiens)
GROUP: inactive
//
SMILES_RECORD: O=C(CCC(=O)N1CCOc2ccc(Cl)cc21)NCCCN1CCN(c2ccccc2F)CC1
TARGET_UNDER_TEST: Ubiquitin-conjugating enzyme E2 N (Homo sapiens)
GROUP: inactive
//
SMILES_RECORD: COC(=O)C1=C(C)N(Cc2ccccc2)C(NCCc2c[nH]c3ccccc23)=N[C@H]1c1cccc(F)c1
TARGET_UNDER_TEST: Ubiquitin-conjugating enzyme E2 N (Homo sapiens);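 note: Dose-response confirmation in a TR-FRET assay detecting UBC13-driven polyubiquitin chain formation, inhibition measured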
GROUP: inactive

---

- PROTOCOL: Luminescence Cell-Based Dose Response HTS to Identify Activators of Luciferase Translation or Activity in H4 […] Cells. [Related pubchem assays: 1829 (Project Summary), 1814 (Primary HTS)]
- Type: functional
Activity calls are given as the source filed them.

COMPOUND: c1ccc(Sc2ncnc3c2oc2ccccc23)nc1
EC50: 26.6 µM (active)

COMPOUND: Cc1cc(C(=O)CSc2n[nH]c(N)n2)c(C)n1-c1ccccc1
EC50: < 0.1 µM (active)

COMPOUND: CC(=O)N1c2ccc(S(=O)(=O)N3CCC(C(=O)NCc4ccccc4Cl)CC3)cc2CC1C (centres undefined)
EC50: > 120 µM (not active)

COMPOUND: NC(=NOC(=O)c1cccc([N+](=O)[O-])c1)c1cccnc1
EC50: 7.46 µM (inconclusive)

COMPOUND: Cc1nc(O)c(C(=O)/C=C/c2ccccc2F)c2c1CCCC2
EC50: > 120 µM (not active)

COMPOUND: CC(C)CC1NC(=O)N(CC(=O)c2ccc3c(c2)OCCO3)C1=O (centres undefined)
EC50: 1.48 µM (active)

COMPOUND: Oc1nc(Nc2ccccn2)cc2ccccc12
EC50: 6.15 µM (active)

COMPOUND: CC(=O)C1=NOC(CNc2ncc(C(F)(F)F)cc2Cl)C1 (centres undefined)
EC50: 17 µM (active)

COMPOUND: O=C1c2ccccc2-c2nc3ccccc3nc21
EC50: 42.2 µM (active)

---

- TARGET_UNDER_TEST: Sentrin-specific protease 6 (Homo sapiens);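 note: Luminescence-based dose-response confirmatory assay of SENP6 inhibition, following up an ultra-high-throughput screen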
- Sequence (Q9GZR1 whole entry): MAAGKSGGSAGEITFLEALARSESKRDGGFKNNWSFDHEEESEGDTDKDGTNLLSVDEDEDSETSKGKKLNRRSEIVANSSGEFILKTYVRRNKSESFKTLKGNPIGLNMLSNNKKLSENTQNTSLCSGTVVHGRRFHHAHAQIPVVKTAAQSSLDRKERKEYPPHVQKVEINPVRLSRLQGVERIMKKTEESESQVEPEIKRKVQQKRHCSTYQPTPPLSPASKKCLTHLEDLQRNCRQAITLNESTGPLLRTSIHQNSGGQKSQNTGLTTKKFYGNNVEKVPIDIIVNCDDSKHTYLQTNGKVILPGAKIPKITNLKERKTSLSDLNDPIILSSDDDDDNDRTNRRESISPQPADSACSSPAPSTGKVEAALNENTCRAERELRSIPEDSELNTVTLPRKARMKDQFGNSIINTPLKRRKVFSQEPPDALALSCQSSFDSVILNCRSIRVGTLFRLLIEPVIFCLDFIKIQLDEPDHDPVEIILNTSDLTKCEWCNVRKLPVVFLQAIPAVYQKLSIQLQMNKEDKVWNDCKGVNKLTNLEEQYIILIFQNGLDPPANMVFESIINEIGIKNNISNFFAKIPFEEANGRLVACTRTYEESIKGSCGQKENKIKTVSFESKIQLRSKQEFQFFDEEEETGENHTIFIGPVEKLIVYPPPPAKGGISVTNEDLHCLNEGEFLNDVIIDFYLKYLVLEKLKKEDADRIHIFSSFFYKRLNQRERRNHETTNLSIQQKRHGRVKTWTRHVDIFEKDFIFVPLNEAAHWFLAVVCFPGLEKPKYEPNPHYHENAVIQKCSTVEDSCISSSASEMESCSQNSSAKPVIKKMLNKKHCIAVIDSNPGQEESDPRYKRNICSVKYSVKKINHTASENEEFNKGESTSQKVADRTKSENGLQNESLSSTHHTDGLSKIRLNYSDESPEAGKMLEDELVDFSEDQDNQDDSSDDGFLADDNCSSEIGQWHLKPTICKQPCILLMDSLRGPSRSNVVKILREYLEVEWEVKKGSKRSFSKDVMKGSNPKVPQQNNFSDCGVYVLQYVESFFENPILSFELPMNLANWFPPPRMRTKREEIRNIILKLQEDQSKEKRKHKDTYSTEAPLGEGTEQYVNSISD
- Format: functional
Activity calls are given as the source filed them.
Listed here are compounds together with their documented IC50.

SMILES_RECORD: O=C(NC1=C(Nc2ccc(F)cc2)C(=O)c2ccccc2C1=O)c1ccc(Cl)cc1
IC50: 8.56 µM (active)
--
SMILES_RECORD: COc1cccc(C(=O)Oc2ccc3ccc(O)cc3c2)c1
IC50: 20.9 µM (active)
--
SMILES_RECORD: Oc1nc(Nc2ccc(F)cc2)cc2ccccc12
IC50: 2.99 µM (active)
--
SMILES_RECORD: c1ccc(Cn2nc(-c3ccccc3)nc2-c2ccccc2)cc1
IC50: 25 µM (active)
--
SMILES_RECORD: O=C(CCCN1C(=O)/C(=C/c2ccccc2Cl)SC1=S)NCCCN1CCOCC1
IC50: 36.7 µM (active)
--
SMILES_RECORD: O=C(Nc1ccc(Br)cc1)Nc1ccccc1Cl
IC50: 7.19 µM (active)
--
SMILES_RECORD: O=C(Nc1cc(Cl)cc(Cl)c1)c1cccc(OC(F)F)c1
IC50: 46.9 µM (active)
--
SMILES_RECORD: COc1ccc(C(=O)CNc2ccccc2Br)cc1
IC50: 27.4 µM (active)
--
SMILES_RECORD: CN(C)c1cc(N/N=C\c2ccccc2)nc(N(C)C)n1
IC50: 6 µM (active)
--
SMILES_RECORD: O=C(Nc1nc2c(Cl)cccc2s1)c1ccc([N+](=O)[O-])o1
IC50: 20.3 µM (active)

---

- PROTOCOL: Luminescence Cell-Based Dose Retest to Confirm Inhibitors of Cancer Stem Cells. [Related pubchem assays (depositor defined):AID2717, AID2721]
- Type: functional
- TEST_SETTINGS: Homo sapiens
The source made the active and inactive calls.
MEASURED_PROPERTY: AC50

COMPOUND: COc1cccc(/C=N/NC(=O)c2[nH]c(C)c(C(=O)N/N=C/c3cccc(OC)c3O)c2C)c1O
MEASURED_PROPERTY: AC50
RECORDED_VALUE: 2.44 µM (active)
//
COMPOUND: CC(C)(C)[C@@H]1CCC(=O)N(CC[C@H](Sc2ccccc2)c2ccccc2)CC1
MEASURED_PROPERTY: AC50
RECORDED_VALUE: 3.92 µM (active)
//
COMPOUND: CCCCn1c(-c2cccc(C)c2)nc2cc3nc(O)c(C(C)C)nc3cc21
MEASURED_PROPERTY: AC50
RECORDED_VALUE: 6.63 µM (active)
//
COMPOUND: O=C1C2C3C=CC(C4CC34)C2C(=O)N1/N=C/c1ccc(-c2ccc(F)cc2[N+](=O)[O-])o1 (stereo not given)
MEASURED_PROPERTY: AC50
RECORDED_VALUE: 1.08 µM (active)
//
COMPOUND: Nc1ccccc1/N=C/c1ccc(-c2cccc(Cl)c2)o1
MEASURED_PROPERTY: AC50
RECORDED_VALUE: 3.68 µM (active)

---

- TARGET_UNDER_TEST: Tyrosine-protein phosphatase non-receptor type 7 (Homo sapiens)
- Assay type: functional
The source made the active and inactive calls.
Listed here are compounds together with their documented IC50.

COMPOUND: O=C(O)C1Nc2ccc([N+](=O)[O-])cc2C2C=CCC12 (centres undefined)
IC50: 7.58 µM (active)
//
COMPOUND: O=C(O)C1Nc2c(cccc2S(=O)(=O)c2ccccc2)C2C=CCC12 (centres undefined)
IC50: 11 µM (active)
//
COMPOUND: Cc1cc(O)c2c(c1)C1C=CCC1C(C(=O)O)N2 (centres undefined)
IC50: 2.41 µM (active)
//
COMPOUND: Clc1ccccc1CSc1nnc(-c2ccco2)c(-c2ccco2)n1
IC50: 10.4 µM (active)

---

- TARGET_UNDER_TEST: Tyrosine-protein phosphatase non-receptor type 7 (Homo sapiens, UniProt P35236)
- Sequence (P35236 whole entry): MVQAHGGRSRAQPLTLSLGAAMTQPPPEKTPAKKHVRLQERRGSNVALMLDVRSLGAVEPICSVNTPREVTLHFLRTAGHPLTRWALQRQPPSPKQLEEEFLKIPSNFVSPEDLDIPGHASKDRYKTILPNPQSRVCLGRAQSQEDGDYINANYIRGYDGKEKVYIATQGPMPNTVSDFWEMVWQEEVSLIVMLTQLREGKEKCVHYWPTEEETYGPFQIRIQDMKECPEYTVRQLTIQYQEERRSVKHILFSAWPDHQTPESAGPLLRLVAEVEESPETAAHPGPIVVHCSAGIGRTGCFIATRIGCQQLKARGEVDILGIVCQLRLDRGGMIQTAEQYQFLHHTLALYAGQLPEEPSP
- PROTOCOL: HePTP tyrosine phosphatase activity blockers – biochemical, absorbance, leukemia target, primary screen (AID 521)
- Format: functional
The source made the active and inactive calls.
Listed here are compounds together with their documented IC50.

COMPOUND: CC(=O)OCC1=C(C(=O)O)N2C(=O)[C@@H](NC(=O)Cc3cccs3)[C@H]2SC1 [CEPHALOTHIN SODIUM]
IC50: 0.92 µM (active)
//
COMPOUND: CN(C)c1ccc(-c2nn3c(-c4ccccc4Cl)nnc3s2)cc1
IC50: > 100 µM (not active)
//
COMPOUND: O=C(O)C1(c2ccc(Cl)cc2)CCC1
IC50: > 100 µM (not active)
//
COMPOUND: CC(NC(=O)c1ccco1)C(c1cccs1)N1CCOCC1 (centres undefined)
IC50: > 100 µM (not active)

---

- TARGET_UNDER_TEST: Melanocortin receptor 4 (Homo sapiens)
- Sequence (P32245 whole entry): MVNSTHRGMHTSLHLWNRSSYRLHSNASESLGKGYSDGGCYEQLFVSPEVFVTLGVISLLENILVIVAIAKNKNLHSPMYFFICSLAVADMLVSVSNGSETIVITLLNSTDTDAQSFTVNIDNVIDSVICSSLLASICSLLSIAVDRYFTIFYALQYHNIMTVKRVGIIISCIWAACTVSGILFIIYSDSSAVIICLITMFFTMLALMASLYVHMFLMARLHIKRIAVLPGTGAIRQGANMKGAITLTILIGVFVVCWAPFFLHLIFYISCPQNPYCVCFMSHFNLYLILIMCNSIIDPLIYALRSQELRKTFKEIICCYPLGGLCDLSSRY
- PROTOCOL: inhibitors of MC4R cAMP signaling – cell-based, TR-FRET, biased antagonists, dose response (AID 602298);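 note: antagonist potency against agonist-stimulated cAMP production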
- Type: functional
Active and inactive are the calls of the source.
MEASURED_PROPERTY: IC50

COMPOUND: Cc1cc(C(=O)CCl)c(C)n1CCc1ccc(F)cc1
RECORDED_VALUE: > 64.5 µM (inactive)

COMPOUND: COC(=O)c1ccc(C2c3[nH]c4ccccc4c3C[C@H]3C(=O)N(C4CCN(Cc5ccccc5)CC4)CC(=O)N23)cc1 (some centres undefined)
RECORDED_VALUE: > 64.6 µM (inactive)

COMPOUND: CC1CCCN(c2nc(-c3cccnc3)nc3scc(-c4ccccc4)c23)C1 (centres undefined)
RECORDED_VALUE: > 64.6 µM (inactive)

COMPOUND: Cc1ccc2nc(-c3ccc(NC(=S)NC(=O)C(C)C)cc3)sc2c1
RECORDED_VALUE: > 64.6 µM (inactive)
